biological target: mouse Tas2r105 (Mus musculus); construct: expressed in transfected cells; host or cells: HEK293T-Gα16gust44; assay: Calcium imaging assay (FLIPR), HEK293T-Gα16gust44 cells transfected with mouse Tas2r105; assay type: cell-based; conditions: Time 104.781 s
Sequence (Q9JKT4 whole entry): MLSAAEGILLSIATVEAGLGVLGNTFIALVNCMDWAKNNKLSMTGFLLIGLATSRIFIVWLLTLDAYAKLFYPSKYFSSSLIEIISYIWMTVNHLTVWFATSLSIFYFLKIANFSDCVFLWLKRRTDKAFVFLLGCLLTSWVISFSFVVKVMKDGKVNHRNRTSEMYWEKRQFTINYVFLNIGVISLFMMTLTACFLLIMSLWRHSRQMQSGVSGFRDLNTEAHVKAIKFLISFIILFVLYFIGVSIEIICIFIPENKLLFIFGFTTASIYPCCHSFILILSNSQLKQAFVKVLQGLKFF
Quick reference for RLU among some molecules
Give the number; RLU is assumed, so skip it.

Sample records with RLU:
{"columns": ["itemSmiles", "unitInfo", "numericValue"],
 "data": [
  ["C[C@H](CCC(=O)O)[C@H]1CC[C@H]2[C@@H]3CC[C@@H]4C[C@H](O)CC[C@]4(C)[C@H]3C[C@H](O)[C@]12C", "RLU", 147.286],
  ["C[C@H](CCC(=O)O)[C@H]1CC[C@H]2[C@@H]3CC[C@@H]4C[C@H](O)CC[C@]4(C)[C@H]3CC[C@]12C", "RLU", 217.502]
]}

Requested read-out: RLU. Entry: "C[C@H](CCC(=O)NCC(=O)O)[C@H]1CC[C@H]2[C@@H]3[C@H](O)C[C@@H]4C[C@H](O)CC[C@]4(C)[C@H]3C[C@H](O)[C@]12C" 497.869

Requested read-out: RLU. Entry: "C[C@H](CCC(=O)O)[C@H]1CC[C@H]2[C@@H]3[C@H](O)C[C@@H]4C[C@H](O)CC[C@]4(C)[C@H]3C[C@H](O)[C@]12C" 569.701

###

target: mouse Tas2r105 (Mus musculus); construct: expressed in transfected cells; host or cells: HEK293T-Gα16gust44; assay: Calcium imaging assay (FLIPR), HEK293T-Gα16gust44 cells transfected with mouse Tas2r105; format: cell-based; conditions: Time 100.781 s
quantityName: RLU (RLU)
Give the number; RLU is assumed, so skip it.

Sample records with RLU:
{"columns": ["itemSmiles", "systemTested", "RLU / RLU"],
 "data": [
  ["C[C@H](CCC(=O)O)[C@H]1CC[C@H]2[C@@H]3CC[C@@H]4C[C@H](O)CC[C@]4(C)[C@H]3C[C@H](O)[C@]12C", "mouse Tas2r105 (Mus musculus)", 117.485],
  ["C[C@H](CCC(=O)NCC(=O)O)[C@H]1CC[C@H]2[C@@H]3[C@H](O)C[C@@H]4C[C@H](O)CC[C@]4(C)[C@H]3C[C@H](O)[C@]12C", "mouse Tas2r105 (Mus musculus)", 510.912],
  ["C[C@H](CCC(=O)O)[C@H]1CC[C@H]2[C@@H]3[C@H](O)C[C@@H]4C[C@H](O)CC[C@]4(C)[C@H]3C[C@H](O)[C@]12C", "mouse Tas2r105 (Mus musculus)", 576.152]
]}

Consider the record given below.
Requested read-out: RLU. Entry: "C[C@H](CCC(=O)O)[C@H]1CC[C@H]2[C@@H]3CC[C@@H]4C[C@H](O)CC[C@]4(C)[C@H]3CC[C@]12C" 248.863

###

Target: human TAS2R4 (Homo sapiens, UniProt Q9NYW5)
Construct: expressed in transfected cells; host or cells: HEK293T-Gα16gust44
Sequence (Q9NYW5 1-299): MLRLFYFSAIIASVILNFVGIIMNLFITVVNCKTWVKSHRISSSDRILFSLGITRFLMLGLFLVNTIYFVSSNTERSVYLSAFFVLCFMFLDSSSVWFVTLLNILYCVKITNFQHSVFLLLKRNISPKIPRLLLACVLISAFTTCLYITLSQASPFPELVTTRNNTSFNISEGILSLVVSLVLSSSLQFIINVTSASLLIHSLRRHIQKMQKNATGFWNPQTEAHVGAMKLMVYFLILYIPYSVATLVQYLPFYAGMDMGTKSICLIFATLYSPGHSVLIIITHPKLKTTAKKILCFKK
Assay: Calcium imaging assay (FLIPR), HEK293T-Gα16gust44 cells transfected with human TAS2R4; also: test concentration or dose not given here
Assay type: cell-based
Details: Time (s) 108.781 (TCA, TLCA: 108.782)
quantityName: RLU, fluorescence trace (RLU)
Give the number; RLU is assumed, so skip it.

{"columns": ["compound", "unitInfo", "RLU, fluorescence trace"],
 "data": [
  ["C[C@H](CCC(=O)NCCS(=O)(=O)O)[C@H]1CC[C@H]2[C@@H]3[C@H](O)C[C@@H]4C[C@H](O)CC[C@]4(C)[C@H]3C[C@H](O)[C@]12C [Taurocholic Acid, taurocholic acid]", "RLU", 618.091],
  ["C[C@H](CCC(=O)NCC(=O)O)[C@H]1CC[C@H]2[C@@H]3[C@H](O)C[C@@H]4C[C@H](O)CC[C@]4(C)[C@H]3C[C@H](O)[C@]12C [Glycocholic Acid, glycocholic acid]", "RLU", 571.666],
  ["C[C@H](CCC(=O)O)[C@H]1CC[C@H]2[C@@H]3CC[C@@H]4C[C@H](O)CC[C@]4(C)[C@H]3C[C@H](O)[C@]12C [Deoxycholic Acid, deoxycholic acid]", "RLU", 333.434],
  ["C[C@H](CCC(=O)NCCS(=O)(=O)O)[C@H]1CC[C@H]2[C@@H]3CC[C@@H]4C[C@H](O)CC[C@]4(C)[C@H]3CC[C@]12C [Taurolithocholic Acid, taurolithocholic acid]", "RLU", 279.776],
  ["C[C@H](CCC(=O)O)[C@H]1CC[C@H]2[C@@H]3[C@@H](O)C[C@@H]4C[C@H](O)CC[C@]4(C)[C@H]3CC[C@]12C [Ursodeoxycholic Acid, ursodeoxycholic acid]", "RLU", 259.159]
]}

Any idea what RLU, fluorescence trace came out for C[C@H](CCC(=O)O)[C@H]1CC[C@H]2[C@@H]3[C@H](O)C[C@@H]4C[C@H](O)CC[C@]4(C)[C@H]3C[C@H](O)[C@]12C [Cholic Acid, cholic acid] on human TAS2R4 (Homo sapiens, UniProt Q9NYW5)? 552.984

###

Biological target: human TAS2R1 (Homo sapiens, UniProt Q9NYW7)
Construct: expressed in transfected cells; host or cells: HEK293T-Gα16gust44
Sequence (Q9NYW7 1-299): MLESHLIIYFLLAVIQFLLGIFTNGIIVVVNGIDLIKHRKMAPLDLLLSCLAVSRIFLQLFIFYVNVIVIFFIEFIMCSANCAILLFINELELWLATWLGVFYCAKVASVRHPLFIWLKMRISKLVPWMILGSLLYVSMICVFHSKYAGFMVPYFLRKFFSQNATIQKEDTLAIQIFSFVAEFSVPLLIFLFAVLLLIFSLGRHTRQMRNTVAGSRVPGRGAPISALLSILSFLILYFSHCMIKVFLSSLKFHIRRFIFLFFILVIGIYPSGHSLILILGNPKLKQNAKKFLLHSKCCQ
Experiment: Calcium imaging assay (FLIPR), HEK293T-Gα16gust44 cells transfected with human TAS2R1
Type: cell-based
Conditions: Time 221.547 s
quantityName: RLU (RLU)
Give the number; RLU is assumed, so skip it.

{"columns": ["itemSmiles", "numericValue"],
 "data": [
  ["C[C@H](CCC(=O)O)[C@H]1CC[C@H]2[C@@H]3CC[C@@H]4C[C@H](O)CC[C@]4(C)[C@H]3C[C@H](O)[C@]12C", 234.297],
  ["C[C@H](CCC(=O)NCCS(=O)(=O)O)[C@H]1CC[C@H]2[C@@H]3CC[C@@H]4C[C@H](O)CC[C@]4(C)[C@H]3CC[C@]12C", -74.4232]
]}

Requested read-out: RLU. Entry: "C[C@H](CCC(=O)NCC(=O)O)[C@H]1CC[C@H]2[C@@H]3[C@H](O)C[C@@H]4C[C@H](O)CC[C@]4(C)[C@H]3C[C@H](O)[C@]12C" 126.114

Requested read-out: RLU. Entry: "C[C@H](CCC(=O)NCCS(=O)(=O)O)[C@H]1CC[C@H]2[C@@H]3[C@H](O)C[C@@H]4C[C@H](O)CC[C@]4(C)[C@H]3C[C@H](O)[C@]12C" 50.9362

###

molecular target: human TAS2R14 (Homo sapiens, UniProt Q9NYV8); construct: expressed in transfected cells; host or cells: HEK293T-Gα16gust44; test: Calcium imaging assay (FLIPR), HEK293T-Gα16gust44 cells transfected with human TAS2R14; assay type: cell-based; conditions: TAS2R14 trace; Time (s) 66.797 (Chenodeoxycholic Acid 66.781)
Sequence (Q9NYV8 whole entry): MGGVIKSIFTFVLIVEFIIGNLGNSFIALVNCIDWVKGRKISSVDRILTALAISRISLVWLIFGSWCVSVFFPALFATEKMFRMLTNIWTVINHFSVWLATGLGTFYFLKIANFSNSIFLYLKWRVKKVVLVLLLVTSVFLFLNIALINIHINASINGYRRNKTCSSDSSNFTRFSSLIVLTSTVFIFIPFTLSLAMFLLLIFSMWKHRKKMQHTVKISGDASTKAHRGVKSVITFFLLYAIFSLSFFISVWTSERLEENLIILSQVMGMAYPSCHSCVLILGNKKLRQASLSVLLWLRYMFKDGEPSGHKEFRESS
quantityName: RLU
Please state the number and follow it with the unit.

Sample records with RLU:
{"columns": ["compound", "systemTested", "RLU"],
 "data": [
  ["C[C@H](CCC(=O)NCC(=O)O)[C@H]1CC[C@H]2[C@@H]3[C@H](O)C[C@@H]4C[C@H](O)CC[C@]4(C)[C@H]3C[C@H](O)[C@]12C [Glycocholic Acid, glycocholic acid]", "human TAS2R14 (Homo sapiens, UniProt Q9NYV8)", "566.626 RLU"],
  ["C[C@H](CCC(=O)NCCS(=O)(=O)O)[C@H]1CC[C@H]2[C@@H]3CC[C@@H]4C[C@H](O)CC[C@]4(C)[C@H]3CC[C@]12C [Taurolithocholic Acid, taurolithocholic acid]", "human TAS2R14 (Homo sapiens, UniProt Q9NYV8)", "225.512 RLU"],
  ["C[C@H](CCC(=O)NCCS(=O)(=O)O)[C@H]1CC[C@H]2[C@@H]3[C@H](O)C[C@@H]4C[C@H](O)CC[C@]4(C)[C@H]3C[C@H](O)[C@]12C [Taurocholic Acid, taurocholic acid]", "human TAS2R14 (Homo sapiens, UniProt Q9NYV8)", "570.299 RLU"],
  ["C[C@H](CCC(=O)O)[C@H]1CC[C@H]2[C@@H]3[C@H](O)C[C@@H]4C[C@H](O)CC[C@]4(C)[C@H]3C[C@H](O)[C@]12C [Cholic Acid, cholic acid]", "human TAS2R14 (Homo sapiens, UniProt Q9NYV8)", "793.47 RLU"]
]}

Consider the record given below.
Requested read-out: RLU. Entry: C[C@H](CCC(=O)O)[C@H]1CC[C@H]2[C@@H]3[C@H](O)C[C@@H]4C[C@H](O)CC[C@]4(C)[C@H]3CC[C@]12C [Chenodeoxycholic Acid, chenodeoxycholic acid] 582.133 RLU
